- Tested on: Fibroblast
- MEASUREMENT NOTES: Multiplex assay against human fibroblast
- Format: toxicity, cell-based
- CONDITIONS: 24 h, 1 µM, compound concentration 1 uM, replicate 2
Mark y for reported Population Healthy Nuclei (%) of 80% or greater; mark n for anything smaller.

### Prompt Tell me whether Population Healthy Nuclei (%) is at least 80% here: CCn1c(-c2nonc2N)nc2cnc(Oc3cccc(NC(=O)c4ccc(OCCN5CCOCC5)cc4)c3)cc21 [GSK-269962A]
### Response n

### Prompt Reported Population Healthy Nuclei (%) reaches at least 80% for `COc1cc2c(NC3CCN(C(C)C)CC3)nc(N3CCC(F)(F)CC3)nc2cc1OCCCN1CCCC1` ?
### Response n

### Prompt Check the entry `CNc1oc(-c2cccc3ccccc23)nc1C#N` : does Population Healthy Nuclei (%) equal or exceed 80%?
### Response n

### Prompt Please indicate if the recorded Population Healthy Nuclei (%) for CN(C)CCOc1ccc(-c2nc(-c3ccncc3)c(-c3ccc4c(c3)CC/C4=N\O)[nH]2)cc1 [SB590885] meets or exceeds 80%.
### Response n

### Prompt Given the entry CCc1cc2c(cc1CC)CC(NC[C@H](O)c1ccc(O)c3[nH]c(=O)ccc13)C2 [INDACATEROL] , answer whether its Population Healthy Nuclei (%) meets or surpasses 80%.
### Response y

### Prompt State whether the measured Population Healthy Nuclei (%) reaches 80%, counting equality as reaching it, for `Cc1cc2c(cc1N1C(=O)c3cccc4c(CCCO)ccc(c34)C1=O)n(C)c(=O)n2C`
### Response y

### Prompt Please check the record CCCn1c(=O)c2[nH]c(C34CC5CC(CC3C5)C4)nc2n(CCC)c1=O [ROLOFYLLINE] and state if its Population Healthy Nuclei (%) is at or above 80%.
### Response y

### Prompt Evaluate `CC(C)N1CCC(C)(C)c2cc(C#Cc3ccc(C(=O)O)cc3)ccc21` : Population Healthy Nuclei (%) at minimum 80%?
### Response n

----------
- System: HEK-293T
- MEASUREMENT NOTES: Multiplex assay against HEK293T
- Type: toxicity, cell-based
- CONDITIONS: human, 48 h, 10 µM, compound concentration 10 uM, replicate 1
Please respond with reported Population Mitochondria Different-Phenotype (%) for every item in the list.
Put down the number, then write its unit next to it.

### Prompt Tell me its Population Mitochondria Different-Phenotype (%) given `Nc1ccc(C(=O)Nc2cccc(-c3nc(N4CCOCC4)c4oc5ncccc5c4n3)c2)cn1` as the entry.
### Response 97%

### Prompt Name the recorded Population Mitochondria Different-Phenotype (%) of the molecule listed here: `CC(=O)c1cc(-c2cc(C(=O)NC3CC3)ccc2C)c2ncccn12`
### Response 63%

### Prompt Retrieve Population Mitochondria Different-Phenotype (%) measured for `CNc1oc(-c2cccc3ccccc23)nc1C#N` and print it.
### Response 0%

### Prompt Please supply the value of reported Population Mitochondria Different-Phenotype (%) for the item `C1=N/C2=N/c3ccc(OCCN4CCCC4)c(c3)COC/C=C\COCc3cccc(c3)C(=C1)N2`
### Response 0%

### Prompt Return value of Population Mitochondria Different-Phenotype (%) for input `COc1ccc(NS(=O)(=O)c2sc3ccc(Cl)cc3c2C)cc1N1CCNCC1.Cl` , no commentary.
### Response 100%

----------
- Tested on: Fibroblast
- MEASUREMENT NOTES: Multiplex assay against human fibroblast
- Type: toxicity, cell-based
- CONDITIONS: 24 h, 1 µM, compound concentration 1 uM, replicate 2
READOUT NAME: Population Membrane Permeable-Phenotype (%)
Note: a bare number is incomplete; add the unit.

### Prompt Find the measured Population Membrane Permeable-Phenotype (%) of `N#Cc1cnc(Nc2cc(NC[C@H]3CNCCO3)c(C(F)(F)F)cn2)cn1` and report it.
### Response 9%

### Prompt Fill in reported Population Membrane Permeable-Phenotype (%) for this entry: CC(C)Oc1ccc(C(=O)N[C@H](CNC(=O)CN(C)C)Cc2ccc(-c3cn4cccc([C@H](C)O)c4n3)cc2)cc1Cl [GSK-923295A]
### Response 10%

### Prompt Provide one value: measured Population Membrane Permeable-Phenotype (%) of `Cc1cc2c(cc1N1C(=O)c3cccc4c(CCCO)ccc(c34)C1=O)n(C)c(=O)n2C`
### Response 0%

### Prompt Return the recorded Population Membrane Permeable-Phenotype (%) value; entry: `c1ccc2oc(-c3csc(C4CCN(Cc5nc6ncccc6[nH]5)CC4)n3)cc2c1`
### Response 25%

### Prompt Write down Population Membrane Permeable-Phenotype (%) measured for item Cc1nc(Cc2cccc(C(F)(F)F)c2)sc1-c1ccc(C(N)=O)nc1 [TP-024n]
### Response 1%

### Prompt Read the entry `CCOc1cc(N2CCC(O)CC2)ccc1Nc1ncc2c(n1)N(C1CCCC1)CCC(=O)N2C` and write its reported Population Membrane Permeable-Phenotype (%).
### Response 26%

### Prompt State, in one line, measured Population Membrane Permeable-Phenotype (%) of `Cl.Cl.Nc1ncnc2c1c(-c1cccc(OCc3ccccc3)c1)cn2[C@H]1C[C@@H](CN2CCC2)C1`
### Response 4%

### Prompt Using the record for `Cl.Cl.NC1(c2ccc(-c3nc4ccn5c(=O)[nH]nc5c4cc3-c3ccccc3)cc2)CCC1` , state its measured Population Membrane Permeable-Phenotype (%).
### Response 8%

### Prompt Return value of Population Membrane Permeable-Phenotype (%) for input `Cc1cn(-c2cc(NC(=O)c3ccc4c(c3)CN(c3cncnc3)C[C@@H]4C)cc(C(F)(F)F)c2)cn1` , no commentary.
### Response 13%

### Prompt State its Population Membrane Permeable-Phenotype (%): `CN(C)CCOc1ccc(-c2nc(-c3ccncc3)c(-c3ccc4c(c3)CC/C4=N\O)[nH]2)cc1`
### Response 20%

### Prompt Identify the reported Population Membrane Permeable-Phenotype (%) for the following entry. CCn1c(-c2nonc2N)nc2cnc(Oc3cccc(NC(=O)c4ccc(OCCN5CCOCC5)cc4)c3)cc21 [GSK-269962A]
### Response 1%

### Prompt Input `COc1cc2c(Nc3ccc(NC(=O)c4ccccc4)cc3)ncnc2cc1OCCCN1CCOCC1` , output reported Population Membrane Permeable-Phenotype (%).
### Response 23%

### Prompt Look up and report measured Population Membrane Permeable-Phenotype (%) for this entry: `CCOc1cc2ncc(C#N)c(Nc3ccc(OCc4cccc(F)c4)c(Cl)c3)c2cc1NC(=O)/C=C/CN(C)C`
### Response 13%

### Prompt Please give measured Population Membrane Permeable-Phenotype (%) of the following entry: `CNc1oc(-c2cccc3ccccc23)nc1C#N`
### Response 1%

### Prompt Give Population Membrane Permeable-Phenotype (%) for the following compound: `Nc1nc2c(c(N3CCNCC3)n1)CCC1=C2[C@@H]2CCCC[C@@H]2O1`
### Response 6%

### Prompt Provide only the value of recorded Population Membrane Permeable-Phenotype (%) for `COc1cc(N2CCC(N(C)C)CC2)ccc1Nc1ncc(Cl)c(Nc2ccccc2P(C)(C)=O)n1`
### Response 0%

### Prompt Provide one value: measured Population Membrane Permeable-Phenotype (%) of `CCCn1c(=O)c2[nH]c(C34CC5CC(CC3C5)C4)nc2n(CCC)c1=O`
### Response 6%

----------
- System: Fibroblast
- MEASUREMENT NOTES: Multiplex assay against human fibroblast
- Format: toxicity, cell-based
- CONDITIONS: 48 h, 10 µM, compound concentration 10 uM, replicate 2
READOUT NAME: Population Healthy Nuclei (%)
Expressed in %, but write only the number.

### Prompt Retrieve Population Healthy Nuclei (%) on Fibroblast; query `CCCn1c(=O)c2[nH]c(C34CC5CC(CC3C5)C4)nc2n(CCC)c1=O`
### Response 57

### Prompt // output Population Healthy Nuclei (%); input `Nc1nc2c(c(N3CCNCC3)n1)CCC1=C2[C@@H]2CCCC[C@@H]2O1` ; system Fibroblast
### Response 49

### Prompt Provide measured Population Healthy Nuclei (%) on Fibroblast for `C1=N/C2=N/c3ccc(OCCN4CCCC4)c(c3)COC/C=C\COCc3cccc(c3)C(=C1)N2` please.
### Response 5

----------
Would you mind telling me the reported Population Apoptotic (%) of each entry?
- System: U2OS
- MEASUREMENT NOTES: Multiplex assay against U2OS
- Type: toxicity, cell-based
- CONDITIONS: human, 24 h, 1 µM, compound concentration 1 uM, replicate 1
Field: numeric (%). Do not append units.

### Prompt Specify Population Apoptotic (%) for `N#Cc1cnc(Nc2cc(NC[C@H]3CNCCO3)c(C(F)(F)F)cn2)cn1` and stop.
### Response 5

### Prompt Provide one value: measured Population Apoptotic (%) of `Nc1ccc(C(=O)Nc2cccc(-c3nc(N4CCOCC4)c4oc5ncccc5c4n3)c2)cn1`
### Response 46

### Prompt Return reported Population Apoptotic (%). Input compound: `CC(C)N1CCC(C)(C)c2cc(C#Cc3ccc(C(=O)O)cc3)ccc21`
### Response 54

### Prompt Return Population Apoptotic (%) (reported value) for this compound: `CC(=O)c1cc(-c2cc(C(=O)NC3CC3)ccc2C)c2ncccn12`
### Response 43

### Prompt Quick one: give measured Population Apoptotic (%) for `CNC(=O)c1cc(Oc2ccc(NC(=O)Nc3cc(C(C)(C)C)nn3-c3ccc4ncccc4c3)c(F)c2)ccn1`
### Response 25

### Prompt Find the measured Population Apoptotic (%) of `CCc1cc2c(cc1CC)CC(NC[C@H](O)c1ccc(O)c3[nH]c(=O)ccc13)C2` and report it.
### Response 36

### Prompt # return recorded Population Apoptotic (%) for input `COc1cc2c(Nc3ccc(NC(=O)c4ccccc4)cc3)ncnc2cc1OCCCN1CCOCC1`
### Response 19

### Prompt Supply Population Apoptotic (%) value. Item: `CNc1oc(-c2cccc3ccccc23)nc1C#N`
### Response 53

### Prompt Report Population Apoptotic (%) for `CC(C)(C)c1cnc(CSc2cnc(NC(=O)C3CCNCC3)s2)o1`
### Response 82

### Prompt Fill in Population Apoptotic (%) for record CCC(=O)O[C@]1(C(=O)SCF)[C@H](C)C[C@H]2[C@@H]3C[C@H](F)C4=CC(=O)C=C[C@]4(C)[C@@]3(F)[C@@H](O)C[C@@]21C [FLUTICASONE PROPIONATE]
### Response 37

### Prompt Tell us which Population Apoptotic (%) value is on record for `CNC(=O)c1nn(C)c2c1C(C)(C)Cc1cnc(Nc3ccc(N4CCN(C)CC4)cc3)nc1-2`
### Response 85

### Prompt Name the recorded Population Apoptotic (%) of the item `COc1ccc(NS(=O)(=O)c2sc3ccc(Cl)cc3c2C)cc1N1CCNCC1.Cl` in your answer.
### Response 52

### Prompt Supply Population Apoptotic (%) value. Item: CCn1c(-c2nonc2N)nc2cnc(Oc3cccc(NC(=O)c4ccc(OCCN5CCOCC5)cc4)c3)cc21 [GSK-269962A]
### Response 43

### Prompt Identify the reported Population Apoptotic (%) for the following entry. `Cl.Cl.Nc1ncnc2c1c(-c1cccc(OCc3ccccc3)c1)cn2[C@H]1C[C@@H](CN2CCC2)C1`
### Response 56

### Prompt Please supply the value of reported Population Apoptotic (%) for the item `Cl.Cl.NC1(c2ccc(-c3nc4ccn5c(=O)[nH]nc5c4cc3-c3ccccc3)cc2)CCC1`
### Response 50
